Provenance of the data: PubChem BioAssay

System: TRPC4 (mouse), co-expressed with 5HT1a in HEK293
test_name: enhancement of serotonin-evoked TRPC4 response – cell-based, second counter screen, HEK293 TRPC4/5HT1a, Fluo-4, counter-screen for TRPC4 potentiator project, confirmation (AID 434979)
conditions: Fluo-4 calcium flux, at 10 µM, serotonin added at its EC20 dose
Calls of active or inactive are those of the source.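 Rule for the calls: active = signal rise over 3 SD above mean of control wells given weak agonist, in both repeats and first screen; inactive = the rest.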
Entry note: the call must match one of active, inactive

Solved entries (count: 3):
> print(dat)
                                   compound                        measurement.target  group.label
1            CNC(=O)COc1ccc2oc3c(c2c1)CCCC3  TRPC4 (mouse), co-expressed with 5HT1a in HEK293     inactive
2  Cc1ccc(-n2cc(CNC(C)c3cnn(C)c3C)c(-c3ccc(F)cc3)n2)cc1 (stereo unspecified)  TRPC4 (mouse), co-expressed with 5HT1a in HEK293     inactive
3   CC(C)CCc1noc(CN2CCN(c3ccc(Cl)cn3)CC2)n1  TRPC4 (mouse), co-expressed with 5HT1a in HEK293     inactive

stdin: What was the test verdict on O=Cc1cc(N=Nc2ccccc2Cl)ccc1O ?
stdout: inactive

stdin: Another compound: CCOC(=O)c1ccc(NC(=O)NCCc2cnc[nH]2)cc1
stdout: inactive

stdin: Another compound: N#Cc1c(NC(=O)C2CC(Cl)=CCC2C(=O)O)sc2c1CCCCC2 (stereo unspecified)
stdout: inactive

====

measurement_target: Short transient receptor potential channel 6 (Mus musculus) (UniProt Q61143)
Sequence (Q61143 whole entry, looked up): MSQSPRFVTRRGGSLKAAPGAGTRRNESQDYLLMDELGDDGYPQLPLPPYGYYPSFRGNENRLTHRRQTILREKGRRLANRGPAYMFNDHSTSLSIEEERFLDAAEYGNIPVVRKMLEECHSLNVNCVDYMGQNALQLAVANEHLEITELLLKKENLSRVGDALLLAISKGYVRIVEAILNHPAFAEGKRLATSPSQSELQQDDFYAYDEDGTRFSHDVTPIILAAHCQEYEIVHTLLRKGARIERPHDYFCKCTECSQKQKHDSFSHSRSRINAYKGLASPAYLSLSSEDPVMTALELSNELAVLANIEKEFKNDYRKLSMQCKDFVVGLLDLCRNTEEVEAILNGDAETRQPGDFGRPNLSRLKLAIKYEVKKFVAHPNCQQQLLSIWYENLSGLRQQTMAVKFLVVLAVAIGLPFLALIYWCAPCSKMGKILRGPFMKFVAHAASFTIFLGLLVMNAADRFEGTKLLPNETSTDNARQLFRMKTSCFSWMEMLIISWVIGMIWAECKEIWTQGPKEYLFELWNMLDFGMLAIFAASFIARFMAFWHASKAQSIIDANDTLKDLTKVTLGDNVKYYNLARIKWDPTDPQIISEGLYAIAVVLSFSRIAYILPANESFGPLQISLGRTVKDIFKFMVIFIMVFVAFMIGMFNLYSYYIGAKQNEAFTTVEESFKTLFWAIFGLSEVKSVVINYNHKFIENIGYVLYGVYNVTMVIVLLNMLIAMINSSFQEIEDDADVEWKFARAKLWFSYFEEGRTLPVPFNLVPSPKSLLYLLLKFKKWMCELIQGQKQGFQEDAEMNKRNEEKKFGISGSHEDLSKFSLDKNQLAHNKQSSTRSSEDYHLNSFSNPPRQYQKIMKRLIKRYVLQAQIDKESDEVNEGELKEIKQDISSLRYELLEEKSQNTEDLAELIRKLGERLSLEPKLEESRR
test_name: positive modulators of mouse TRPC6 channel – HEK293 cells, membrane potential dye, duplicate, selectivity assay for TRPC4 potentiator project, confirmation (AID 434952)
conditions: HEK293 TRPC6, membrane potential dye fluorescence, at 10 µM, maximal acetylcholine added after compound
Activity calls are given as the source filed them.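 Rule for the calls: active = compound raising the membrane signal above positive-control mean plus 3 SD in both repeats, and a primary screen hit; inactive = the rest.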
endpoint: potentiation, percent of control

> print(dat)
                                   molecule  endpoint.value
1   O=[N+]([O-])c1cc(C(F)(F)F)ccc1N1CCCNCC1        inactive
2  O=C(c1cccc(C(=O)N2CCN(c3ccccc3)CC2)c1)N1CCN(c2ccccc2)CC1        inactive
3  CCCn1c(N)c(C(=O)CSc2n[nH]c(-c3ccc(C)cc3)n2)c(=O)[nH]c1=O        inactive
4  CC(=O)C1=C(O)C(=O)N(Cc2ccccc2)C1c1ccc([N+](=O)[O-])cc1 (stereo not given)        inactive
5  Cc1c(C(=O)NCC(c2ccco2)N(C)C)oc2c(Cl)cccc12 (stereo not given)        inactive

stdin: I'd like to know its potentiation, percent of control. The molecule in question is Cc1ccc(OCC(=O)N(C)CCc2ccccn2)cc1
stdout: inactive

stdin: Another molecule: COc1ccc(-n2cc(CNCc3cnc4ccccn34)c(-c3cccc(F)c3)n2)cc1
stdout: inactive

stdin: Another molecule: COc1cc(/C=C/C(=O)OCC(=O)Nc2c(C)n(C)n(-c3ccccc3)c2=O)ccc1OCC#N
stdout: inactive

stdin: Another molecule: Nc1cc(=O)nc(SCC(=O)N2CCN(c3ccccc3)CC2)n1-c1ccc(F)cc1
stdout: inactive

stdin: Another molecule: O=S(=O)(c1ccc(Cl)cc1Br)N1CCCCC1
stdout: inactive
